Numbers sourced from patent US20200369771A1.

Listed here: items and their measured Response.
# TGT: T1, human PD-L1 (recombinant, in solution) (human, UniProt Q9NZQ7 19-238, limits assumed)
# T1 construct: also called human PD-L1 antigen
# PROCEDURE_DETAILS: BLI Octet Red 96, Fab from E. coli supernatant on anti-FABCH1 sensors, PD-L1 at 30 ug/mL, 1:1 model
Field format: numeric only.

| BINDER | Response |
| --- | --- |
| wild type BCD-135 Fab antibody (Fab, V domains shown, Fab made in E. coli and used as supernatant; also called Wild-BCD-135VH; control wild BCD-135 Fab) VH: EVQLVESGGGVVRPGGSLRLSCAASGFTFDDYAMSWVRQAPGKGLEWVSDISWSGSNTNYADSVKGRFTISRDNAKNSLYLQMNSLRAEDTALYHCARAPLLLAMTFGVGSWGQGTLVTVSS VL: QTVVTQEPSLSVSPGGTVTLTCGLSSGTVTAINYPGWYQQTPGQAPRTLIYNTNTRHSGVPDRFSGSISGNKAALTITGAQAEDEADYYCALYMGNGGHMFGGGTK | 0.0903 |
| 4m-BCD-135VH (Fab, V domains shown, Substitutions derived from the printed CDR strings; Fab from E. coli supernatant; also called BCD-135 mutant Fab antibody 4m) VH: EVQLVESGGGVVRPGGSLRLSCAASGFTFANYAMSWVRQAPGKGLEWVSDISWSGSNTNYADSVKGRFTISRDNAKNSLYLQMNSLRAEDTALYHCAKAPLPLATTFGVGSWGQGTLVTVSS VL: QTVVTQEPSLSVSPGGTVTLTCGLSSGTVTAINYPGWYQQTPGQAPRTLIYNTNTRHSGVPDRFSGSISGNKAALTITGAQAEDEADYYCALYVGTGSHMFGGGTK | 0.0637 |
| 2m-BCD-135VH (Fab, V domains shown, Substitutions derived from the printed CDR strings; Fab from E. coli supernatant; also called BCD-135 mutant Fab antibody 2m) VH: EVQLVESGGGVVRPGGSLRLSCAASGFTFNDYAMSWVRQAPGKGLEWVSDISWSGSNTNYADSVKGRFTISRDNAKNSLYLQMNSLRAEDTALYHCAKAPLPLATTFGVGSWGQGTLVTVSS VL: QTVVTQEPSLSVSPGGTVTLTCGLSSGTVTAINYPGWYQQTPGQAPRTLIYNTNTRHSGVPDRFSGSISGNKAALTITGAQAEDEADYYCALYTGTGSHMFGGGTK | 0.0505 |
| 6m-BCD-135VH (Fab, V domains shown, Substitutions derived from the printed CDR strings; Fab from E. coli supernatant; also called BCD-135 mutant Fab antibody 6m) VH: EVQLVESGGGVVRPGGSLRLSCAASGFTFSTYAMSWVRQAPGKGLEWVSDISWSGSNTNYADSVKGRFTISRDNAKNSLYLQMNSLRAEDTALYHCAKAPLVLAITFGVGSWGQGTLVTVSS VL: QTVVTQEPSLSVSPGGTVTLTCGLSSGTVTAINYPGWYQQTPGQAPRTLIYNTNTRHSGVPDRFSGSISGNKAALTITGAQAEDEADYYCALYTGTGSHMFGGGTK | 0.0945 |
| 5m-BCD-135VH (Fab, V domains shown, Substitutions derived from the printed CDR strings; Fab from E. coli supernatant; also called BCD-135 mutant Fab antibody 5m) VH: EVQLVESGGGVVRPGGSLRLSCAASGFTFKSYAISWVRQAPGKGLEWVSDISWSGSNTNYADSVKGRFTISRDNAKNSLYLQMNSLRAEDTALYHCAKAPLMLAATFGVGSWGQGTLVTVSS VL: QTVVTQEPSLSVSPGGTVTLTCGLSSGTVTAINYPGWYQQTPGQAPRTLIYNTNTRHSGVPDRFSGSISGNKAALTITGAQAEDEADYYCALYYGTGSHMFGGGTK | 0.0623 |
| 7m-BCD-135VH (Fab, V domains shown, Substitutions derived from the printed CDR strings; Fab from E. coli supernatant; also called BCD-135 mutant Fab antibody 7m) VH: EVQLVESGGGVVRPGGSLRLSCAASGFTFADYAMSWVRQAPGKGLEWVSDISWSGSNTNYADSVKGRFTISRDNAKNSLYLQMNSLRAEDTALYHCAKAPLPSAITFGVGSWGQGTLVTVSS VL: QTVVTQEPSLSVSPGGTVTLTCGLSSGTVTAINYPGWYQQTPGQAPRTLIYNTNTRHSGVPDRFSGSISGNKAALTITGAQAEDEADYYCALYEGTGSHMFGGGTK | 0.0637 |

Let us examine a further case.
Prompt: Sample 1m-BCD-135VH (Fab, V domains shown, Fab from E. coli supernatant; also called BCD-135 mutant Fab antibody 1m) VH: EVQLVESGGGVVRPGGSLRLSCAASGFTFANYAMSWVRQAPGKGLEWVSDISWSGSNTNYADSVKGRFTISRDNAKNSLYLQMNSLRAEDTALYHCAKAPLLLATTFGVGSWGQGTLVTVSS VL: QTVVTQEPSLSVSPGGTVTLTCGLSSGTVTAINYPGWYQQTPGQAPRTLIYNTNTRHSGVPDRFSGSISGNKAALTITGAQAEDEADYYCALYVGTGSHMFGGGTK — what was its Response?
Completion: 0.0971
